Molecular target: Toll-like receptor 2 (Homo sapiens)
Test: Agonist activity at human TLR2 expressed in HEK293 cells assessed as NFkappaB translocation at 10 uM after 12 hrs by secretory alkaline phosphatase reporter gene assay
Type: functional, cell-based
Calls of active or inactive are those of the source. No cut-off for these calls is given here.

[
  {
    "Structure As Smiles": "COC(=O)[C@H](CO)NC(=O)[C@@H](N)CSCCOC(=O)c1ccc(-c2ccccc2)cc1",
    "Tested Target": "Toll-like receptor 2 (Homo sapiens)",
    "Activity": "inactive"
  },
  {
    "Structure As Smiles": "CCCCCCCC(=O)OCCSC[C@H](N)C(=O)N[C@@H](CO)C(=O)OC",
    "Tested Target": "Toll-like receptor 2 (Homo sapiens)",
    "Activity": "inactive"
  },
  {
    "Structure As Smiles": "CCCCCCCCCCCCCCCC(=O)N[C@@H](CSCCOC(=O)CCCCCCCCCCCCCCC)C(=O)N[C@@H](CO)C(=O)OC",
    "Tested Target": "Toll-like receptor 2 (Homo sapiens)",
    "Activity": "inactive"
  },
  {
    "Structure As Smiles": "CCCCCCCCCCCCCCCC(=O)OCCSC[C@H](NCCCCCCCC)C(=O)N[C@@H](CO)C(=O)OC",
    "Tested Target": "Toll-like receptor 2 (Homo sapiens)",
    "Activity": "inactive"
  },
  {
    "Structure As Smiles": "CCCCCCCCCCCCCCCC(=O)OCCSC[C@H](NCC)C(=O)N[C@@H](CO)C(=O)OC",
    "Tested Target": "Toll-like receptor 2 (Homo sapiens)",
    "Activity": "inactive"
  },
  {
    "Structure As Smiles": "CCCC(=O)OCCSC[C@H](N)C(=O)N[C@@H](CO)C(=O)OC",
    "Tested Target": "Toll-like receptor 2 (Homo sapiens)",
    "Activity": "inactive"
  },
  {
    "Structure As Smiles": "COC(=O)[C@H](CO)NC(=O)[C@@H](N)CSCCOC(=O)c1cccc(-c2ccccc2)c1",
    "Tested Target": "Toll-like receptor 2 (Homo sapiens)",
    "Activity": "inactive"
  },
  {
    "Structure As Smiles": "CCCCCCCCCCCC(=O)OCCSC[C@H](N)C(=O)N[C@@H](CO)C(=O)OC",
    "Tested Target": "Toll-like receptor 2 (Homo sapiens)",
    "Activity": "inactive"
  },
  {
    "Structure As Smiles": "CCCCCCCCCCCCCCCCN[C@@H](CSCCOC(=O)CCCCCCCCCCCCCCC)C(=O)N[C@@H](CO)C(=O)OC",
    "Tested Target": "Toll-like receptor 2 (Homo sapiens)",
    "Activity": "inactive"
  }
]
